target system: HA-1 “H” peptide (…) presented by HLA-A*02:01 on antigen presenting cells (human)
method description: cell-based or functional assay
EC50 values for CD69 Expression strictly less than 5 ng/mL = condition met. Otherwise condition not met.

Illustrative cases are given below, each with its answer.
binder	cat
TCR V (TCR, V domains shown) V domain 1: AQTVTQSQPEMSVQEAETVTLSCTYDTSENNYYLFWYKQPPSRQMILVIRQEAYKQQNATENRFSVNFQKAAKSFSLKISDSQLGDTAMYFCALYSGAGSYQLTFGKGTKLSVIP V domain 2: DTGVSQDPRHKITKRGQNVTFRCDPISEHNRLYWYRQTLGQGPEFLTYFQNEAQLEKSRLLSDRFSAERPKGSFSTLEIQRTEQGDSAMYLCASSLAAGMNTEAFFGQGTRLTVVE	condition not met
TCR AA (TCR, V domains shown) V domain 1: QQQVKQSPQSLIVQKGGISIINCAYENTAFDYFPWYQQFPGKGPALLIAIRPDVSEKKEGRFTISFNKSAKQFSLHIMDSQPGDSATYFCAASSPGTYKYIFGTGTRLKVLA V domain 2: DTGVSQDPRHKITKRGQNVTFRCDPISEHNRLYWYRQTLGQGPEFLTYFQNEAQLEKSRLLSDRFSAERPKGSFSTLEIQRTEQGDSAMYLCASSLLKNTEAFFGQGTRLTVVE	condition met
TCR W (TCR, V domains shown) V domain 1: AQSVAQPEDQVNVAEGNPLTVKCTYSVSGNPYLFWYVQYPNRGLQFLLKYITGDNLVKGSYGFEAEFNKSQTSFHLKKPSALVSDSALYFCAVRDPTSGTYKYIFGTGTRLKVLA V domain 2: DTGVSQDPRHKITKRGQNVTFRCDPISEHNRLYWYRQTLGQGPEFLTYFQNEAQLEKSRLLSDRFSAERPKGSFSTLEIQRTEQGDSAMYLCASSLVQGNEQFFGPGTRLTVLE	condition not met
TCR Y (TCR, V domains shown) V domain 1: SQQGEEDPQALSIQEGENATMNCSYKTSINNLQWYRQNSGRGLVHLILIRSNEREKHSGRLRVTLDTSKKSSSLLITASRAADTASYFCATAYSGGGADGLTFGKGTHLIIQP V domain 2: DTGVSQNPRHKITKRGQNVTFRCDPISEHNRLYWYRQTLGQGPEFLTYFQNEAQLEKSRLLSDRFSAERPKGSFSTLEIQRTEQGDSAMYLCASSLIRAEKLFFGSGTQLSVLE	condition not met

Moving on to another binder below.
[ask] State whether 5 ng/mL exceeds EC50 values for CD69 Expression recorded for TCR Z (TCR, V domains shown) V domain 1: QQVMQIPQYQHVQEGEDFTTYCNSSTTLSNIQWYKQRPGGHPVFLIQLVKSGEVKKQKRLTFQFGEAKKNSSLHITATQTTDVGTYFCAGPKGNTPLVFGKGTRLSVIA V domain 2: DTGVSQDPRHKITKRGQNVTFRCDPISEHNRLYWYRQTLGQGPEFLTYFQNEAQLEKSRLLSDRFSAERPKGSFSTLEIQRTEQGDSAMYLCASSLTVSYEQYFGPGTRLTVTE .
[reply] condition met

Just for reference, patent US20240270813A1 is where these values come from.
